Target sequence: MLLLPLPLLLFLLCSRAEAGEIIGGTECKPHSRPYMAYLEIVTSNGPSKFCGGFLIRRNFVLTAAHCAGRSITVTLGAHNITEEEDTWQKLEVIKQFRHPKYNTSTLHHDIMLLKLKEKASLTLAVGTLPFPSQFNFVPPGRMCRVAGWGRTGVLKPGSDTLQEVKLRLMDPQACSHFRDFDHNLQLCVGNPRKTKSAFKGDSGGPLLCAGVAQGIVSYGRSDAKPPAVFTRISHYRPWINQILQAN
Listed molecules paired with reported IC50
Field: numeric (µM). Do not append units.

These solved cases illustrate the format of a correct answer.
1) CC(C)(C(=O)OC(=O)C(C)(C)C(CCc1ccccc1)NC(=O)c1ccccc1)C(CCc1ccccc1)NC(=O)c1ccccc1 (stereo in doubt; 9); 0.02
2) CCCCCC(NC(=O)CCC)C(C)(C)C(=O)OC(=O)C(C)(C)C(CCCCC)NC(=O)CCC (configuration not stated); 29
3) CC(C)(CNC(=O)c1ccccc1)C(=O)OC(=O)C(C)(C)CNC(=O)c1ccccc1; 3
4) CCCC(=O)NC(CCc1ccccc1)C(C)(C)C(=O)OC(=O)C(C)(C)C(CCc1ccccc1)NC(=O)CCC (stereo in doubt; 9 (-)); 0.0056
5) O=C(CCNC(=O)c1ccccc1)OC(=O)CCNC(=O)c1ccccc1; 40

Now look at this entry.
IC50 in this record for CC(C)(C(=O)OC(=O)C(C)(C)C(CCc1ccccc1)NC(=O)c1ccccc1)C(CCc1ccccc1)NC(=O)c1ccccc1 (single isomer, unassigned; (+)) : 0.091

---

# STUDY_SYSTEM: Chymase (Homo sapiens)
# Sequence (P23946 whole entry): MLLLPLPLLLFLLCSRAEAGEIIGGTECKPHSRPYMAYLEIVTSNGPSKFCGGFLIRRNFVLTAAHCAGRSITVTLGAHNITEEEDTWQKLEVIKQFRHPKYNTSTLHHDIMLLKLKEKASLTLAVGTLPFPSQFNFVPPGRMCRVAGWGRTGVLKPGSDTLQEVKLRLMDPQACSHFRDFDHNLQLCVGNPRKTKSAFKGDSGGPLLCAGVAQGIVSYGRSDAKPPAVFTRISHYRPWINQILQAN
The following compounds are shown together with reported IC50 values.
Just the number please, in µM, no unit attached.

1. CCCC(NC(=O)c1ccccc1)C(C)(C)C(=O)OC(=O)C(C)(C)C(CCC)NC(=O)c1ccccc1 (centres undefined); 0.058

Entry CCCCCC(NC(=O)c1ccccc1)C(C)(C)C(=O)OC(=O)C(C)(C)C(CCCCC)NC(=O)c1ccccc1 (centres undefined) ; IC50 = 0.013

Just so you know, measured IC50 for CC(C)(C(=O)OC(=O)C(C)(C)C(NC(=O)c1ccc(C#N)cc1)c1ccccc1)C(NC(=O)c1ccc(C#N)cc1)c1ccccc1 (centres undefined) came out at 13

// IC50 lookup, compound = Cc1ccccc1C(NC(=O)c1ccc(C#N)cc1)C(C)(C)C(=O)OC(=O)C(C)(C)C(NC(=O)c1ccc(C#N)cc1)c1ccccc1C (centres undefined) , result: 8.7

---

Collected pIC50 values appear next to each entry.
# STUDY_SYSTEM: UniProt P08311
# Sequence (P08311 whole entry): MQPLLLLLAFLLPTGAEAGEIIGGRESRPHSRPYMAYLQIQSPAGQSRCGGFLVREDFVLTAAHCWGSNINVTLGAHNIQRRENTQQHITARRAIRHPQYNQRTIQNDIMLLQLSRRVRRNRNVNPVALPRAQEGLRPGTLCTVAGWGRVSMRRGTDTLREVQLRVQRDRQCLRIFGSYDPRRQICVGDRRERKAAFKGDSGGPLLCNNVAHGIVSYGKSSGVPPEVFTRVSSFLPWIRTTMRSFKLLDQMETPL
Note on units: pIC50 is unitless, being -log10 of a concentration expressed in mol/L.

Please review the entries below; each comes with its answer.
1) CCCCCC(NC(=O)CCC)C(C)(C)C(=O)OC(=O)C(C)(C)C(CCCCC)NC(=O)CCC (stereo not drawn); 5.80
2) O=C(CCNC(=O)c1ccccc1)OC(=O)CCNC(=O)c1ccccc1; 5.51

Kindly review the next compound as well.
# pIC50 of CC(C)(C(=O)OC(=O)C(C)(C)C(NC(=O)c1ccc(C#N)cc1)C1CC=CCC1)C(NC(=O)c1ccc(C#N)cc1)C1CC=CCC1 (stereo not drawn) = 7.16
